These entries and their values trace back to patent US20120329826A1.

- System name: UniProtKB Q04912
- Sequence (Q04912 25-1400): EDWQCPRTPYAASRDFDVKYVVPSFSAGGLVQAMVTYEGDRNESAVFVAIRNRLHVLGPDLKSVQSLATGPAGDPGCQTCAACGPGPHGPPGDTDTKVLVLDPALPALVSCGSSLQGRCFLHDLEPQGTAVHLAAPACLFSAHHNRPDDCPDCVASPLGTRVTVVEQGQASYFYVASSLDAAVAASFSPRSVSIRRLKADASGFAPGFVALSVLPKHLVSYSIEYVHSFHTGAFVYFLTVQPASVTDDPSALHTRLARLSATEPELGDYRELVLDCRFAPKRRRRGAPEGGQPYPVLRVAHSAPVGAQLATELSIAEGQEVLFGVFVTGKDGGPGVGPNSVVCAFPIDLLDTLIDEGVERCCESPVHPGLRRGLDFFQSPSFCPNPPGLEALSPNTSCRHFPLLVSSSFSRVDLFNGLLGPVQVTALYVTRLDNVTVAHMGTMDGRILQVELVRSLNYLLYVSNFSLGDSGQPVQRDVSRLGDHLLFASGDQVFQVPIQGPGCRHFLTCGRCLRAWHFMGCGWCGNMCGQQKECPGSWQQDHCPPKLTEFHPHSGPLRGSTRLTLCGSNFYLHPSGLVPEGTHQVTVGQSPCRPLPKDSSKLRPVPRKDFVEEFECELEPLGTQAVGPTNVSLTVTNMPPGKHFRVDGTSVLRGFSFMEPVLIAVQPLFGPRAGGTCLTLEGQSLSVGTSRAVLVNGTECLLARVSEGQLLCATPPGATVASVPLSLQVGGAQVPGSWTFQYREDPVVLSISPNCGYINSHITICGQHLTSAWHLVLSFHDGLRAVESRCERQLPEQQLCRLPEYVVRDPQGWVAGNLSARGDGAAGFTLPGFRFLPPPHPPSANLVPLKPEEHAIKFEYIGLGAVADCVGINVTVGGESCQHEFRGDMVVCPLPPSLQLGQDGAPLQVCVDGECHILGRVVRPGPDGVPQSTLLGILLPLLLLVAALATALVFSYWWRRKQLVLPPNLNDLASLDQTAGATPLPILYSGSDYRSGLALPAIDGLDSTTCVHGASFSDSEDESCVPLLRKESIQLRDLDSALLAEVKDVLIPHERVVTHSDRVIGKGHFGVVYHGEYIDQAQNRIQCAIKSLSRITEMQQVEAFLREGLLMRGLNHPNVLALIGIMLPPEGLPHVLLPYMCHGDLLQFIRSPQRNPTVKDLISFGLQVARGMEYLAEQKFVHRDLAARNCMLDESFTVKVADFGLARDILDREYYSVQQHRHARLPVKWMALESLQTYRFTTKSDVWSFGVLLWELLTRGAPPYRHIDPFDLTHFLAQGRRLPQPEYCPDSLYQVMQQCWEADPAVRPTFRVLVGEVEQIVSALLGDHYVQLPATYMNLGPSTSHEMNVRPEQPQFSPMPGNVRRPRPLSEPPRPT
pIC50: −log10 of the molar value. Where a name gives a salt, the structure may show the parent alone.
Recorded endpoint: pIC50

[
  {
    "Compound": "Nc1ncc2c(ccn2CCC2CCNCC2)c1-c1cc2ccccc2o1 [Example 10, bis-hydrochloride]",
    "Result": "≥ 5.30"
  },
  {
    "Compound": "Nc1ncc2[nH]ccc2c1-c1cc2ccccc2o1 [Example 7]",
    "Result": "< 4.70"
  },
  {
    "Compound": "C[C@@H](Oc1c(N)ncc2c1ccn2CCC1CCNCC1)c1c(Cl)ccc(F)c1Cl [Example 5, bis-hydrochloride]",
    "Result": "≥ 5.30"
  },
  {
    "Compound": "C[C@@H](Oc1c(N)ncc2c1ccn2C)c1c(Cl)ccc(F)c1Cl [Example 2]",
    "Result": "< 4.70"
  }
]
